molecular target: Mitogen-activated protein kinase kinase kinase 7 (Homo sapiens); conditions: at 1 µM
Some compounds, each annotated with its measured residual activity.
The reply should be a number in %, with the unit left off.

Examples with their reported residual activity follow.
• O=C1Nc2ccccc2/C1=C1/Nc2ccccc2/C1=N\OCCC(O)CO (stereo unspecified) = 36
• COc1ccc(OC)c2c(=S)c3ccccc3[nH]c12 = 95
• CC#CC(=O)Nc1cc2c(Nc3ccc(F)c(Cl)c3)ncnc2cn1 = 91
• O=C1NC(=O)c2c1c1c3ccccc3[nH]c1c1[nH]c3cc(Br)ccc3c21 = 94
• COc1ccc(CNc2nc(N(CCO)CCO)nc3c2ncn3C(C)C)cc1 = 92

Here is another compound to look at.
Can you share its residual activity? I mean this compound: `C[C@@H](N)[C@H]1CC[C@H](C(=O)Nc2ccncc2)CC1` 109

Data provenance is ChEMBL document CHEMBL2218924.
